Kindly state IC50 for each of the entries shown.
System: Immunologically Stimulated Human Basophils
Experiment: Inhibition of Histamine Release from Immunologically Stimulated Human Basophils
Type: cell-based
Details: Homo sapiens, 1 h, anti-IgE or antigen stimulated, 60 min, 37° C., read-out: ED50 (concentration which causes 50% inhibition of histamine release)
Experimental: The novel compounds of this invention have been tested by the procedure of Lichtenstein, L. M. and Osler, A. G., J. Exp. Med., 120, 507-530 (1964), which evaluates the ability of compounds to inhibit mediator (histamine) release from immunologically stimulated human basophils. 10X Concentrated Tris Buffer Dissolve 140.3 g of sodium chloride, 7.45 g of potassium chloride and 74.5 g of Trizma-Tris Pre-Set, Reagent Grade, pH 7.6, at 25° C. […]
Counter-ions that a name gives are not always drawn.
Numbers only, in µM.

{"molecule": "O=C1C(Cl)=C(N2CCN(C(=O)c3ccccc3Cl)CC2)C(=O)c2ccccc21", "experimental.endpoint": "IC50", "readout.number": 1.8}
{"molecule": "O=C1C(Cl)=C(N2CCN(c3ccccn3)CC2)C(=O)c2ccccc21 [Example 8, hydrochloride]", "experimental.endpoint": "IC50", "readout.number": 4.6}
{"molecule": "CN(CCN(C)C1=C(Cl)C(=O)c2ccccc2C1=O)Cc1ccccc1 [Example 2, hydrochloride]", "experimental.endpoint": "IC50", "readout.number": 4}
{"molecule": "CN(CCNCc1nc2ccccc2s1)C1=C(Cl)C(=O)c2ccccc2C1=O", "experimental.endpoint": "IC50", "readout.number": 6.4}
{"molecule": "O=C1C(Cl)=C(N2CCN(CC(=O)N3CCCC3)CC2)C(=O)c2ccccc21", "experimental.endpoint": "IC50", "readout.number": 14.9}

Could you tell me IC50 for each of these molecules? They are listed below.
1. O=C1C(Cl)=C(N2CCN(c3nc4ccccc4s3)CC2)C(=O)c2ccccc21 [Example 17, hydrochloride]
2. CC(C)COC(=O)N1CCN(C2=C(Cl)C(=O)c3ccccc3C2=O)CC1
3. O=C1C(Cl)=C(N2CCN(CC(=O)N3CCOCC3)CC2)C(=O)c2ccccc21
4. CC1CN(C2=C(Cl)C(=O)c3ccccc3C2=O)CCN1 (stereo not shown)
5. O=C1C(Cl)=C(N2CCN(Cc3ccccc3)CC2)C(=O)c2ccccc21

1: 5.4; 2: 16.5; 3: 20.6; 4: 3; 5: 10.4

----------
So I've got a bunch of compounds here, and I need their LTB4, % of Control values.
Target: Neutrophil Lipoxygenase (Cavia porcellus)
Construct: endogenous in cells; host or cells: guinea pig peritoneal neutrophils
Assay: Inhibition of Neutrophil Lipoxygenase from Immunologically Stimulated Guinea Pig Neutrophiles (LTB4 and 5-HETE)
Assay type: cell-based
Conditions: 10 μg/ml; 100 μM arachidonic acid and 20 μM A23187; the lower the percentage, the more active

{"record.smiles": "CCOC(=O)N1CCN(C2=C(Cl)C(=O)c3ccccc3C2=O)CC1", "experimental.system": "Neutrophil Lipoxygenase (Cavia porcellus)", "result": "0 % of Control"}
{"record.smiles": "O=C1C(Cl)=C(N2CCN(Cc3ccccc3)CC2)C(=O)c2ccccc21", "experimental.system": "Neutrophil Lipoxygenase (Cavia porcellus)", "result": "0 % of Control"}
{"record.smiles": "Cl.O=C1C(Cl)=C(N2CCN(Cc3ccccc3)CC2)C(=O)c2ccccc21", "experimental.system": "Neutrophil Lipoxygenase (Cavia porcellus)", "result": "28.3 % of Control"}

API: the following record is the query input.
Find the recorded LTB4, % of Control belonging to CCOC(=O)N1CCN(C2=C(Cl)C(=O)c3ccccc3C2=O)CC1.Cl and report it. 9.3 % of Control

----------
Molecular target: Neutrophil Lipoxygenase (Cavia porcellus)
Construct: endogenous in cells; host or cells: guinea pig peritoneal neutrophils
Sequence (A0A286X958 1-674): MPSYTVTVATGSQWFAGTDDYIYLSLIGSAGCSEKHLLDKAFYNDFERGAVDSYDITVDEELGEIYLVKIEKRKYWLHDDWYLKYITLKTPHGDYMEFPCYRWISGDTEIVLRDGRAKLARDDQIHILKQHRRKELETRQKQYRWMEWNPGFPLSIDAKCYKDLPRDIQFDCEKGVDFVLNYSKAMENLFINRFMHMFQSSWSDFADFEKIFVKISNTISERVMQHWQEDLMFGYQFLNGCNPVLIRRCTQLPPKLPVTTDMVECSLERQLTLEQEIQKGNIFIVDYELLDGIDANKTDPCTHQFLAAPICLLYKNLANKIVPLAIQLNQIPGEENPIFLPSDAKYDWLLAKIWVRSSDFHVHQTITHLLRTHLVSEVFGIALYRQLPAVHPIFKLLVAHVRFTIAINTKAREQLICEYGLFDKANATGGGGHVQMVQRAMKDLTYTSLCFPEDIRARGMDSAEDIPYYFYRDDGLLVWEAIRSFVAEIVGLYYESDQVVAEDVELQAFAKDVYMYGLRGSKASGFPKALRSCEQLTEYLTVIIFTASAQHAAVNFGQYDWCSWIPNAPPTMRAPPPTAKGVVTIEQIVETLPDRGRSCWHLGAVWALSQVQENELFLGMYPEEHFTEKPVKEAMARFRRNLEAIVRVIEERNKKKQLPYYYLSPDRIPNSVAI
Assay: Inhibition of Neutrophil Lipoxygenase from Immunologically Stimulated Guinea Pig Neutrophiles (LTB4 and 5-HETE)
Type: cell-based
Settings: 10 μg/ml; 100 μM arachidonic acid and 20 μM A23187; the lower the percentage, the more active; read-out: 5-HETE, % of Control
Where a name gives a salt, the structure may show the parent alone.
Checkbox rule: remaining activity at 10 µg/mL lower than 10% = Satisfied; remaining activity at 10 µg/mL not lower than 10% = Not satisfied.

Answered examples (6):
{"molecule": "O=C1C(Cl)=C(N2CCN(C(=O)Nc3ccccc3F)CC2)C(=O)c2ccccc21", "assigned.label": "Satisfied"}
{"molecule": "CN(CCNCc1nc2ccccc2s1)C1=C(Cl)C(=O)c2ccccc2C1=O", "assigned.label": "Satisfied"}
{"molecule": "CCOC(=O)N1CCN(C2=C(C)C(=O)c3ccccc3C2=O)CC1", "assigned.label": "Satisfied"}
{"molecule": "CCCCc1ccc(C(=O)N2CCN(C3=C(Cl)C(=O)c4ccccc4C3=O)CC2)cc1", "assigned.label": "Not satisfied"}
{"molecule": "O=C1C(Cl)=C(N2CCN(c3nc4ccccc4s3)CC2)C(=O)c2ccccc21 [Example 17, hydrochloride]", "assigned.label": "Not satisfied"}
{"molecule": "O=C1C(Cl)=C(N2CCN(c3ncccn3)CC2)C(=O)c2ccccc21", "assigned.label": "Not satisfied"}

Bench note: check whether CC1=C(N2CCN(c3ccccn3)CC2)C(=O)c2ccccc2C1=O shows remaining activity at 10 µg/mL below 10% Satisfied

Consider CC1=C(N2CCN(Cc3ccccc3)CC2)C(=O)c2ccccc2C1=O . Does its remaining activity at 10 µg/mL lie strictly below 10%? Satisfied

----------
Molecular target: Neutrophil Lipoxygenase (Cavia porcellus)
Construct: endogenous in cells; host or cells: guinea pig peritoneal neutrophils
Experiment: Inhibition of Neutrophil Lipoxygenase from Immunologically Stimulated Guinea Pig Neutrophiles (LTB4 and 5-HETE)
Assay type: cell-based
Settings: 10 μg/ml; 100 μM arachidonic acid and 20 μM A23187; the lower the percentage, the more active; read-out: 5-HETE, % of Control
Counter-ions that a name gives are not always drawn.
experimental.endpoint: remaining activity at 10 µg/mL (%)
One number for each entry, in %.

# count of solved cases: 2
{"molecule": "O=C1C(Cl)=C(N2CCCN(c3nc4ccccc4s3)CC2)C(=O)c2ccccc21 [Example 52]", "experimental.system": "Neutrophil Lipoxygenase (Cavia porcellus)", "scale.unit": "%", "remaining activity at 10 µg/mL": 1.1}
{"molecule": "CC1=C(N2CCN(c3nc4ccccc4s3)CC2)C(=O)c2ccccc2C1=O [Example 42]", "experimental.system": "Neutrophil Lipoxygenase (Cavia porcellus)", "scale.unit": "%", "remaining activity at 10 µg/mL": 0.8}

Respectfully, I request remaining activity at 10 µg/mL for each entry included below.
1. O=C1C(Cl)=C(N2CCN(Cc3ccc4c(c3)OCO4)CC2)C(=O)c2ccccc21 [Example 11, hydrochloride]
2. O=C1C(Cl)=C(N2CCN(C(=O)Nc3ccc(Cl)cc3)CC2)C(=O)c2ccccc21 [Example 32]
3. O=C1C(Cl)=C(N2CCN(C(=O)Nc3cccc(C(F)(F)F)c3)CC2)C(=O)c2ccccc21 [Example 31]
4. CC(=O)NC1=C(N2CCN(c3nc4ccccc4s3)CC2)C(=O)c2ccccc2C1=O [Example 23]

0
1.4
0
0

----------
Target: Neutrophil Lipoxygenase (Cavia porcellus)
Construct: endogenous in cells; host or cells: guinea pig peritoneal neutrophils
Experiment: Inhibition of Neutrophil Lipoxygenase from Immunologically Stimulated Guinea Pig Neutrophiles (LTB4 and 5-HETE)
Type: cell-based
Settings: 10 μg/ml; 100 μM arachidonic acid and 20 μM A23187; the lower the percentage, the more active; read-out: LTB4, % of Control
Counter-ions that a name gives are not always drawn.
experimental.endpoint: remaining activity at 10 µg/mL (%)
One number for each entry, in %.

As a guide, the following entries are already answered.
{"compound": "O=C1C(Cl)=C(N2CCN(c3nc4ccccc4s3)CC2)C(=O)c2ccccc21 [Example 17, hydrochloride]", "scale.unit": "%", "remaining activity at 10 µg/mL": 32.6}
{"compound": "CC1=C(N2CCN(Cc3ccccc3)CC2)C(=O)c2ccccc2C1=O [Example 43]", "scale.unit": "%", "remaining activity at 10 µg/mL": 4.8}
{"compound": "O=C1C(Cl)=C(N2CCN(c3ccccn3)CC2)C(=O)c2ccccc21 [Example 8, hydrochloride]", "scale.unit": "%", "remaining activity at 10 µg/mL": 6.1}
{"compound": "CC(C)COC(=O)N1CCN(C2=C(Cl)C(=O)c3ccccc3C2=O)CC1 [Example 33]", "scale.unit": "%", "remaining activity at 10 µg/mL": 27.4}
{"compound": "O=C1C(Cl)=C(N2CCN(c3ccc4ccccc4n3)CC2)C(=O)c2ccccc21 [Example 10, hydrochloride]", "scale.unit": "%", "remaining activity at 10 µg/mL": 0}
{"compound": "CCCCc1ccc(C(=O)N2CCN(C3=C(Cl)C(=O)c4ccccc4C3=O)CC2)cc1 [Example 35]", "scale.unit": "%", "remaining activity at 10 µg/mL": 23.2}
{"compound": "O=C1C(Cl)=C(N2CCN(Cc3ccc4c(c3)OCO4)CC2)C(=O)c2ccccc21 [Example 11, hydrochloride]", "scale.unit": "%", "remaining activity at 10 µg/mL": 0}
{"compound": "O=C1C(Cl)=C(N2CCN(C(=O)Nc3ccccc3Cl)CC2)C(=O)c2ccccc21 [Example 29]", "scale.unit": "%", "remaining activity at 10 µg/mL": 22.2}

Quick request: remaining activity at 10 µg/mL for each listed item, please.
1. CN(CCNCc1nc2ccccc2s1)C1=C(Cl)C(=O)c2ccccc2C1=O [Example 9]
2. CC1=C(N2CCN(c3nc4ccccc4s3)CC2)C(=O)c2ccccc2C1=O [Example 42]
3. O=C1C(Cl)=C(N2CCN(c3nc4ccccc4o3)CC2)C(=O)c2ccccc21 [Example 55]
4. O=C1C(Cl)=C(N2CCN(C(=O)Nc3ccccc3F)CC2)C(=O)c2ccccc21 [Example 30]
5. CC1CN(C2=C(Cl)C(=O)c3ccccc3C2=O)CCN1C(=O)Nc1cccc(Cl)c1 (stereo not drawn) [Example 58]
6. CC1=C(N2CCN(c3ccccn3)CC2)C(=O)c2ccccc2C1=O [Example 44]
7. CC(=O)NC1=C(N2CCN(c3nc4ccccc4s3)CC2)C(=O)c2ccccc2C1=O [Example 23]

1: 0; 2: 20.8; 3: 13.5; 4: 0; 5: 15.2; 6: 0; 7: 0
